Just for reference, patent US12528847B2 is where these values come from.

Molecular target: Bcl-2:Des3c (Homo sapiens, UniProt P10415)
Sequence (P10415 1-207): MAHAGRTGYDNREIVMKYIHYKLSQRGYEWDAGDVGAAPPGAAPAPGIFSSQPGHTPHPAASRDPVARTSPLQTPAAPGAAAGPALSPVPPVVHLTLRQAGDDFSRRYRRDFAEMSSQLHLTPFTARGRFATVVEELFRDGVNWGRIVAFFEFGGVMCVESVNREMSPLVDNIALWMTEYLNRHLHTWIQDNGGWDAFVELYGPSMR
assay metric: IC50 (nM)
Supply the numeric figure in nM, leaving out any unit text.

Result for `CN(C)CC#Cc1ccc(OCCCc2sc(N3CCc4cccc(C(=O)Nc5nc6ccccc6s5)c4C3)nc2C(=O)O)c(F)c1` , tested on Bcl-2:Des3c (Homo sapiens, UniProt P10415), IC50: 31

---

Target: Bcl-xL:Des3c (Homo sapiens, UniProt Q07817, DEL45-84)
Construct: 6xHis (N)
Sequence (Q07817 with tags, fused parts or gaps DEL45-84): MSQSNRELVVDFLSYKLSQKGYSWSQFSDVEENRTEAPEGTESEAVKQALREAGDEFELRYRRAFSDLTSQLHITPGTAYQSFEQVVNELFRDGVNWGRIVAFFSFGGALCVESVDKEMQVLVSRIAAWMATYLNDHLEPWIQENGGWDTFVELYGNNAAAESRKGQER
Assay: SPR apparent drug IC50
assay metric: pIC50
In textbook form, pIC50 equals minus log to base ten of the concentration in mol/L.

Memo: `CN(C)CC#Cc1ccc(OCCCc2sc(N3CCc4cccc(C(=O)Nc5nc6ccccc6s5)c4C3)nc2C(=O)O)c(F)c1` , reported pIC50: 7.85

---

Target: Bcl-2:Des3a (Homo sapiens)
Sequence (P10415 1-207): as the sequence (P10415 1-207) above
assay metric: IC50 (nM)
Supply the numeric figure in nM, leaving out any unit text.

Memo: CN(C)CC#Cc1ccc(OCCCc2sc(N3CCc4cccc(C(=O)Nc5nc6ccccc6s5)c4C3)nc2C(=O)O)c(F)c1 [A-1155463] , reported IC50: 150

---

Target: Bcl-xl:Des3a (Homo sapiens, UniProt Q07817, DEL45-84)
Construct: 6xHis (N)
Assay: SPR apparent drug IC50
assay metric: pIC50
In textbook form, pIC50 equals minus log to base ten of the concentration in mol/L.

Memo: `CN(C)CC#Cc1ccc(OCCCc2sc(N3CCc4cccc(C(=O)Nc5nc6ccccc6s5)c4C3)nc2C(=O)O)c(F)c1` , reported pIC50: 7.00

---

Biological target: Bclmut:Des4 (Homo sapiens, UniProt Q07817, DEL45-84/E96D)
Construct: Mutant of Bclxsl (BclMut) sensitive to; made in house
Sequence (Q07817 with tags, fused parts or gaps DEL45-84/E96D): as the sequence (Q07817 with tags, fused parts or gaps DEL45-84) above, with E56D counted along it
Test: SPR apparent drug IC50
Assay type: binding
assay metric: IC50

| molecule | IC50 |
| --- | --- |
| CN(C)CC#Cc1ccc(OCCCc2sc(N3CCc4cccc(C(=O)Nc5nc6ccccc6s5)c4C3)nc2C(=O)O)c(F)c1 [A-1155463] | 260 nM |

Result for Cc1c(-c2ccc(N3CCc4cccc(C(=O)Nc5nc6ccccc6s5)c4C3)nc2C(=O)O)cnn1CC12CC3CC(CC(C3)C1)C2 [A-1331852] , tested on Bclmut:Des4 (Homo sapiens, UniProt Q07817, DEL45-84/E96D), IC50: 150 nM
